Assay Target: T1, CRBN, Q96SW2;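 further: pooled lentiviral library of zinc finger degron-EGFP fusions in mCherry-positive Jurkat cells, FACS-sorted after compound exposure, with degron abundance counted by next-generation sequencing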
T1 chain: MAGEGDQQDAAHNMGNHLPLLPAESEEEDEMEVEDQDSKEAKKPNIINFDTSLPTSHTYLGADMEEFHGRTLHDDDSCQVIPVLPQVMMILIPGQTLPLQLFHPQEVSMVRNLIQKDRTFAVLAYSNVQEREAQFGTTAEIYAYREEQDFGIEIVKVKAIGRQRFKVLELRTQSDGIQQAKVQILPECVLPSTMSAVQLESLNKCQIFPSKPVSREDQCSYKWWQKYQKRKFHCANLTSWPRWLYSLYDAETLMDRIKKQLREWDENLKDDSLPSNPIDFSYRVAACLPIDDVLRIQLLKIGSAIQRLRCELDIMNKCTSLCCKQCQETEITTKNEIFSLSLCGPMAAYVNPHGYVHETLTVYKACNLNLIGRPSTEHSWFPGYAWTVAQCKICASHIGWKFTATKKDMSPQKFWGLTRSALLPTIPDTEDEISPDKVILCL
Method Description: log2 fold change of degron read counts, EGFP-low vs EGFP+ sorted cells (limma voom), compound-induced degradation; higher = more compound-induced degradation of the degron-EGFP fusion; degrons are variants of IKZF1/3 zinc finger 2; compound dose not given here
Setup Conditions: Jurkat; 18 h; compound: compound 22 (5-morpholino-thalidomide)
In all, about 8,300 sequences were measured (“log2 fold change of degron read counts, EGFP-low vs EGFP+ sorted cells (limma voom), compound-induced degradation”: median about -1.1, highest 2% from about 3.2 on). Shown is part of a subset that was picked to be rich in the highest values.
As shown below, each of these sequences has a reported log2 fold change of degron read counts value.
Result Type: log2 fold change of degron read counts

> print(dat)
                            monomer.sequence                             result.type  numeric.result
 1  FACEICGAGFTQKGNLLRHIKL [46F_47A_49E_50I_52G_53A_54G_55F_67L_, Q9UKT9]  log2 fold change of degron read counts            1.86
 2  FICEICGAGFTQKGNLLRHIKL [46F_47I_49E_50I_52G_53A_54G_55F_67L_, Q9UKT9]  log2 fold change of degron read counts            2.54
 3  LNCPICGFTCTQKGNLLRHIKL [46L_47N_49P_50I_52G_53F_54T_55C_67L_, Q9UKT9]  log2 fold change of degron read counts            1.48
 4  FDCEICGAGFTQKGNLLRHIKL [46F_47D_49E_50I_52G_53A_54G_55F_67L_, Q9UKT9]  log2 fold change of degron read counts           -1.13
 5  FRCNVCGAQFTQKGNLLRHIKL [46F_47R_49N_50V_52G_53A_54Q_55F_67L_, Q9UKT9]  log2 fold change of degron read counts           -1.19
 6  FQCNVCGAVFTQKGNLLRHIKL [46F_47Q_49N_50V_52G_53A_54V_55F_67L_, Q9UKT9]  log2 fold change of degron read counts            1.21
 7  FTCNVCGAGFTQKGNLLRHIKL [46F_47T_49N_50V_52G_53A_54G_55F_67L_, Q9UKT9]  log2 fold change of degron read counts          -0.181
 8  FCCPICGANFTQKGNLLRHIKL [46F_47C_49P_50I_52G_53A_54N_55F_67L_, Q9UKT9]  log2 fold change of degron read counts            2.16
 9  FMCEICGRFFTQKGNLLRHIKL [46F_47M_49E_50I_52G_53R_54F_55F_67L_, Q9UKT9]  log2 fold change of degron read counts           -2.11
10  FICNVCGAVFTQKGNLLRHIKL [46F_47I_49N_50V_52G_53A_54V_55F_67L_, Q9UKT9]  log2 fold change of degron read counts           -1.69
11  FFCEICGAGFTQKGNLLRHIKL [46F_47F_49E_50I_52G_53A_54G_55F_67L_, Q9UKT9]  log2 fold change of degron read counts             2.9
12  FYCNVCGAVFTQKGNLLRHIKL [46F_47Y_49N_50V_52G_53A_54V_55F_67L_, Q9UKT9]  log2 fold change of degron read counts             1.2
13  LACNQCGFLCTQKGNLLRHIKL [46L_47A_49N_50Q_52G_53F_54L_55C_67L_, Q9UKT9]  log2 fold change of degron read counts           -2.34
14  FRCEICGAGFTQKGNLLRHIKL [46F_47R_49E_50I_52G_53A_54G_55F_67L_, Q9UKT9]  log2 fold change of degron read counts            1.83
15  LFCEICGFDCTQKGNLLRHIKL [46L_47F_49E_50I_52G_53F_54D_55C_67L_, Q9UKT9]  log2 fold change of degron read counts            -2.4
